The measured values listed here are drawn from patent US20100120810A1.

Assay system: Rac1b (Homo sapiens)
Construct: GST (N); made in house; host or cells: E. coli BL21 Codon+RIL
Assay method text: Nucleotide binding assay: BODIPY-GTP binding to Rac1b
Assay type: biochemical
Experimental setup: final concentration of 50 μM; read-out: Rac1b % inhibition of BODIPY-GTP binding
Structures can show the parent of a compound that is named as a salt.
Attribute measured: inhibition at 50 µM (%)
Answers are plain numbers, in %.

Please review the entries below; each comes with its answer.
                                   molecule   attribute_measured  unit_string  number
0  COc1cc2cc(-c3cccnc3)nc(C)c2cc1OC [Compound 36, dihydrochloride]  inhibition at 50 µM            %      12
1   COc1cc2cc(-c3ccccc3NC(C)=O)nc(C)c2cc1OC  inhibition at 50 µM            %       0
2  COc1ccc2c(c1OC)C[N+]1(Cc3ccccc3)CCc3cc4c(cc3C1C2)OCO4 (racemic)  inhibition at 50 µM            %      16
3  COc1cc2cc(-c3ccc(O)c(O)c3)[n+](C)c(C)c2cc1OC  inhibition at 50 µM            %      17
4    COc1ccc(-c2cc3cc(OC)c(OC)cc3c(C)n2)cc1  inhibition at 50 µM            %      17

Hi, could you look up inhibition at 50 µM for each item in my list?
1. COc1cc2cc(-c3cccc(NS(C)(=O)=O)c3)nc(C)c2cc1OC [Compound 30, hydrochloride]
2. COc1cc2cnc(-c3ccccc3)cc2cc1OC
3. COc1cc2cc(-c3ccccc3NC(=O)N(C)C)nc(C)c2cc1OC [Compound 46, hydrochloride]
4. COc1cc2cc(-c3cccc(N)c3)nc(C)c2cc1OC [Compound 28, dihydrochloride]
5. COc1ccc(-c2cc3cc(OC)c(OC)cc3c(C)n2)cn1 [Compound 35, dimethanesulfonate]
6. COc1cc2cc(-c3cccc(N(S(C)(=O)=O)S(C)(=O)=O)c3)nc(C)c2cc1OC [Compound 29, hydrochloride]
7. COc1cc2c(cc1OC)CN(Cc1cccc(O)c1O)CC2

16
2
9
20
6
-2
4

Hi, could you look up inhibition at 50 µM for each item in my list?
1. COc1ccc2c(c1OC)C(Cc1ccccc1)N1CCc3cc4c(cc3C1C2)OCO4 (racemic) [Compound 12, hydrochloride]
2. COc1cc2cc(-c3ccc(Cl)cc3)nc(C)c2cc1OC

[31, 17]
